Each entry below carries its reported TGI.
- Test system: LOX IMVI melanoma
- test: NCI tumour cell line growth inhibition, 48 h

COc1ccc(/C=C2\CCCCCC2=O)cc1 :: > 100 µM

QUERY: Given the molecule COc1ccc2c(c1)OC1=C(C(=O)OC1)C2c1cc(OC)c(OC)c(OC)c1 (stereo not drawn) , what is its reported TGI?
RESULT: > 100 µM

QUERY: What about this molecule? `COc1ccc(CNc2c3ccccc3nc3ccc(OC)cc23)cc1`
RESULT: 3.31 µM

QUERY: Also `CC[O-].CC[O-].O=C1C(c2ccccc2)=C([O-])c2ccccc21.O=C1C(c2ccccc2)=C([O-])c2ccccc21.[Ti+4]` ?
RESULT: > 100 µM

QUERY: Again, but for O=C([O][Hg][CH2]C1COCC([CH2][Hg][O]C(=O)c2ccccc2)O1)c1ccccc1 (stereo not drawn)
RESULT: 4.2 µM

QUERY: What would you report for `O=C(c1cccs1)N(C(=S)N1CCN(c2ccccn2)CC1)C1CCCCC1` ?
RESULT: > 100 µM

QUERY: Now the molecule COC1OC(C)C(O)CC1OS(=O)(=O)c1ccc(C)cc1 (stereo not drawn)
RESULT: > 100 µM

QUERY: Next: `O=c1cc(CBr)c2ccc(O)cc2o1`
RESULT: > 100 µM

QUERY: # iterate: `Cc1cc(N2CCN(c3ccnc4cc(Cl)ccc34)CC2)nc(NC2CCCCC2)n1`
RESULT: 3.19 µM

---

- System: OVCAR-5 ovarian
- test: NCI tumour cell line growth inhibition, 48 h
Where a SMILES comes first, the peptide text is derived from it. [ ]: non-standard residue; d: D form. The star is where a group is joined. ξ: configuration not given here. NMeN = CN[C@@H](CC(N)=O)C(=O)O; NMeV = CN[C@H](C(=O)O)C(C)C; ξNMeV = CNC(C(=O)O)C(C)C; Boc = CC(C)(C)OC(=O)*; ξNMeA = CNC(C)C(=O)O
measured_endpoint: TGI

Sample records with TGI:
COC(=O)C(C)N(C)C(=O)[C@H](CC(N)=O)N(C)C(=O)[C@@H]1CCCN1C(=O)[C@H](C(C)C)N(C)C(=O)C(C(C)C)N(C)C(=O)[C@@H](NC(=O)OC(C)(C)C)C(C)C (some centres not stated) (Boc-V[ξNMeV][NMeV]P[NMeN][ξNMeA]-OMe) :: > 100 µM
CCCCCCCCCCC(O)C1CCC(C(O)CCC(O)C2CCC(CCCCCCC[C@H](O)CC3=C[C@@H](C)OC3=O)O2)O1 (some centres not stated) :: > 100 µM
O=c1[nH]ccc2nc(N3CCC(O)CC3)nc(Nc3cccc(C(F)(F)F)c3)c12 :: 94.3 µM

QUERY: Given `CC1=C(C(=O)NCCc2ccccc2)CC(C(=O)NCCc2ccccc2)=C(C)N1` , state its recorded TGI.
RESULT: > 100 µM

QUERY: How about `O=C1c2ccccc2C2=Nc3ccncc3CN12` ?
RESULT: > 100 µM

QUERY: Also need `CC(=O)Nc1c(C)ccc2c1C(=O)c1ccccc1C2=O` , thanks.
RESULT: > 100 µM

QUERY: Same question, O=C([O][Hg][CH2]C1COCC([CH2][Hg][O]C(=O)c2ccccc2)O1)c1ccccc1 (configuration not stated) this time
RESULT: 35.9 µM

---

- System: M14 melanoma
- test: NCI tumour cell line growth inhibition, 48 h
Recorded measurements of TGI, one per entry

In the examples that follow, each entry is paired with its recorded TGI.
O=C1NC2CCC(C2)C1c1ccccc1 (stereo unspecified) :: > 100 µM
COC(=O)C12CC3CC(C1)CC(C(=O)OC)(C3)C2 :: > 100 µM
CCOC(=O)C1C(c2ccc(OC)cc2)c2c([nH][nH]c2=O)CC1(O)OCC (stereo unspecified) :: > 100 µM
COc1cc(C=Nc2ccc(C(C)C)cc2)cc(OC)c1OC :: > 100 µM
CCOC(=O)[C@@H]1ON2O[C@H](OC3CCCC3(c3ccccc3)c3ccccc3)C[C@H]3OC(=O)[C@@H]1C32 (stereo partly specified) :: > 100 µM

Consider now this further molecule.
QUERY: Hi! What's the reported TGI for COC(=O)C12C(=O)O[C@H](C)C1(O)C(C)C(=O)N2C (stereo partly specified) on M14 melanoma?
RESULT: > 100 µM

---

- Tested on: DU-145 prostate
- test: NCI tumour cell line growth inhibition, 48 h
// reported TGI for each item listed

Some entries whose results are on file:
CCC1=CC2Cc3nc4cc(Cl)ccc4c(N)c3C(C1)C2 (configuration not stated) :: 28.9 µM
COC(=O)C1=Cc2cc(OC)c(O)cc2[C@@H](c2ccc(O)c(OC)c2)[C@@H]1C(=O)OC :: > 100 µM

QUERY: What does the data say about its TGI? Entry: `COc1ccc(-c2c(CN3CCOCC3)sc3nc4ccccc4n23)cc1`
RESULT: > 100 µM

QUERY: And `COc1ccc(C2=C(c3ccc(OC)c(OC)c3)C(=O)OC2)cc1` ?
RESULT: > 100 µM

QUERY: What would you report for `Cn1c(NS(=O)(=O)c2ccccc2)nc2ccccc21` ?
RESULT: > 100 µM

QUERY: Continue with COc1cc(C2C3=C(COC3=O)Oc3cc4c(cc32)OCO4)ccc1OC(C)=O (configuration not stated)
RESULT: > 100 µM

QUERY: Next: `CCOc1ccc(Nc2nc(-c3ccc4c(c3)NC(=O)CO4)cs2)cc1`
RESULT: > 100 µM

---

- Test system: RXF 393 renal
- test: NCI tumour cell line growth inhibition, 48 h
measured_endpoint: TGI

Cc1nn(-c2ccccc2)c2[nH]c(=S)cnc12 :: > 100 µM
Cn1c(NS(=O)(=O)c2ccccc2)nc2ccccc21 :: > 100 µM
Fc1ccccc1-c1nn2c(C34CC5CC(CC(C5)C3)C4)nnc2s1 :: > 100 µM
CCCCC(=O)NC1(c2cc3ccccc3s2)CCCCC1 :: > 100 µM
O=C(c1ccco1)N(C(=S)N1CCN(c2ccccn2)CC1)C1CCCCC1 :: > 100 µM
COc1ccc(C2=C(c3ccc(OC)c(OC)c3)C(=O)OC2)cc1 :: > 100 µM
COc1ccc(CNc2c3ccccc3nc3ccc(OC)cc23)cc1 :: 3.04 µM
CC1=NN(c2nc(N)nc(CSCc3nc(N)nc(N(C)C)n3)n2)C(C)(C)C1 :: > 100 µM

QUERY: TGI lookup needed for `CCOP(=O)(OCC)c1ccc(=O)[nH]c1-c1cccs1` , thanks.
RESULT: > 100 µM

QUERY: Next compound up: `C=C(Br)CN(C(C)=O)C1CCCCC1`
RESULT: > 100 µM

---

- Tested on: MCF7 breast
- test: NCI tumour cell line growth inhibition, 48 h
measured_endpoint: TGI

Reference set, count: 3
O=C(C1C(c2ccccc2)N1C(c1ccccc1)c1ccccc1)C1C(c2ccccc2)N1C(c1ccccc1)c1ccccc1 (centres undefined) :: 22.4 µM
CC1=C(C(=O)NCCc2ccccc2)CC(C(=O)NCCc2ccccc2)=C(C)N1 :: > 100 µM
O=S(=O)(c1ccc(N=C2NN=C(c3c[nH]c4ccccc34)CS2)cc1)N1CCOCC1 :: > 100 µM

Pending compound:
QUERY: # lookup: TGI of `O=c1[nH]nc(Cc2ccccc2)n1/N=C/c1ccccc1Cl`
RESULT: > 100 µM

---

// reported TGI per item
- System: HOP-92 NSCLC
- test: NCI tumour cell line growth inhibition, 48 h
Answer in µM, number only, no unit symbol.

O=C([O][Hg][CH2]C1COCC([CH2][Hg][O]C(=O)c2ccccc2)O1)c1ccccc1 (stereo unspecified) :: 4.23
CCN(CC)C(=S)SNCc1ccc(S(N)(=O)=O)cc1 :: 45.7
C=CCN1C=CC(=O)[C@H](O[Si](C)(C)C(C)(C)C)[C@@H]1/C=C/c1ccccc1 :: 21.1
Cc1cc(NCCCCCCCCCC[n+]2c(C)cc(N)c3ccccc32)c2ccccc2n1 :: 7.62

In the following, a different compound is considered.
QUERY: Query (compound): `O=C1NC(=S)NC(=O)C1=Cc1cccc2cc3ccccc3cc12` ; field requested: TGI
RESULT: 3.76

---

- Tested on: HOP-92 NSCLC
- test: NCI tumour cell line growth inhibition, 48 h
measured_endpoint: TGI (µM)
Use µM as the unit, but write only the number.

Some compounds with known TGI results, for comparison:
CCCN1CCN(c2ccc3nc(-c4ccc5nc(-c6cc(OC)ccc6OC)[nH]c5c4)[nH]c3c2)CC1 :: 27
O=C(C[n+]1ccccc1)N=N/C(C(=O)Nc1c(Cl)c(O)c2ccccc2c1O)=C1/C(=O)Oc2cc(O)ccc2C1=O :: 48.8

QUERY: Recorded TGI of `O=C(Nc1ccc(F)cc1F)c1cc(Br)ccc1O` , please.
RESULT: 3.9

QUERY: Ok, now `COc1cc2c(Oc3ccc4[nH]c(C)cc4c3F)ccnc2cc1OCC1(N)CC1`
RESULT: 7.11

QUERY: Try `COc1ccc(-c2nc3ncccn3c2/C=C/C(=O)c2cc(OC)c(OC)c(OC)c2)cc1` next.
RESULT: 12

QUERY: Subsequent entry: `COC(=O)C1=C(\c2ccccc2)c2ccccc2C(=O)N(C2CCCCC2)/C=C\1`
RESULT: 95.2
